These data points were gathered from patent US11351151B2.

- Test system: SNU387
- Test: Cell proliferation assay (Alamar Blue)
- Format: cell-based
- Applied Conditions: Homo sapiens, SNU-387, 144 h; SNU387 liver cancer cell line; 6 days
Attribute Measured: IC50 (µM)

Compound | Attribute Measured | Unit Tag | Val
Cc1ccc(F)c(NC(=O)Nc2ccc(-c3cccc4c3c(N)nn4C(=O)C[C@H](N)C(=O)O)cc2)c1 | IC50 | µM | 10.5

P = Cc1ccc(F)c(NC(=O)Nc2ccc(-c3cccc4[nH]nc(N)c34)cc2)c1 [Linifanib, reference compound]
Q = Cc1ccc(F)c(NC(=O)Nc2ccc(-c3cccc4c3c(N)nn4C(=O)C[C@H](N)C(=O)N[C@@H](CCC(=O)N[C@@H](CCC(=O)N[C@@H](CCC(=O)N[C@@H](CCC(=O)O)C(=O)O)C(=O)O)C(=O)O)C(=O)O)cc2)c1
Incoming: Lab note: check whether P or Q shows the higher recorded IC50. Mark your selection by writing its label.
Outgoing: Q
(Q: 19.4 µM, P: 12.3 µM)

###

- System: HUH6
- Test: Cell proliferation assay (Alamar Blue)
- Assay type: cell-based
- Applied Conditions: Homo sapiens, HuH-6, 144 h; HUH6 liver cancer cell line; 6 days
- Procedure: 1. Instruments and Materials • Thermo 311 CO2 incubator; Haier biosafety cabinet; Molecular Devices microplate reader; Xiangyi brand L530 desktop low speed centrifuge; Olympus IX51 inverted fluorescence microscope, DMEM, RPMI 1640, MEM, DMEM/F12 1:1 medium, Fetal bovine serum, 0.25% trypsin solution, phosphate buffer (Thermo Fisher Shanghai Co., Ltd.); sigma dimethyl sulfoxide (DMSO), resazurin; 54 commercial tumor cell lines (including 26 liver cancer cell lines). […]
Attribute Measured: IC50 (µM)

Smiles Representation | Study System | Attribute Measured | Val
Cc1ccc(F)c(NC(=O)Nc2ccc(-c3cccc4c3c(N)nn4C(=O)CCCCCNC(=O)C[C@H](N)C(=O)N[C@@H](CCC(=O)N[C@@H](CCC(=O)N[C@@H](CCC(=O)N[C@@H](CCC(=O)N[C@@H](CCC(=O)N[C@@H](CCC(=O)N[C@@H](CCC(=O)N[C@@H](CCC(=O)N[C@@H](CCC(=O)O)C(=O)O)C(=O)O)C(=O)O)C(=O)O)C(=O)O)C(=O)O)C(=O)O)C(=O)O)C(=O)O)cc2)c1 | HUH6 | IC50 | 88.7

1 = Cc1ccc(F)c(NC(=O)Nc2ccc(-c3cccc4c3c(N)nn4C(=O)C[C@H](N)C(=O)N[C@@H](CCC(=O)N[C@@H](CCC(=O)N[C@@H](CCC(=O)N[C@@H](CCC(=O)O)C(=O)O)C(=O)O)C(=O)O)C(=O)O)cc2)c1
2 = Cc1ccc(F)c(NC(=O)Nc2ccc(-c3cccc4c3c(N)nn4C(=O)CCCCCNC(=O)C[C@H](N)C(=O)N[C@@H](CCC(=O)O)C(=O)O)cc2)c1
Incoming: Of the pair 1 and 2 , name the member with the lesser recorded IC50. Mark your selection by writing its label.
Outgoing: 1

###

List of IC50 values.
- Tested on: KASUMI-1
- Test: Cell proliferation assay (Alamar Blue)
- Type: cell-based
- Applied Conditions: Homo sapiens, 144 h; KASUMI-1 (leukemia cells); 6 days
Give your result in nM as a bare value.

Molecule | Unit Tag | Val
Cc1ccc(F)c(NC(=O)Nc2ccc(-c3cccc4c3c(N)nn4C(=O)CCCCCCCCCCCNC(=O)C[C@H](N)C(=O)N[C@@H](CCC(=O)N[C@@H](CCC(=O)N[C@@H](CCC(=O)N[C@@H](CCC(=O)N[C@@H](CCC(=O)N[C@@H](CCC(=O)N[C@@H](CCC(=O)N[C@@H](CCC(=O)N[C@@H](CCC(=O)O)C(=O)O)C(=O)O)C(=O)O)C(=O)O)C(=O)O)C(=O)O)C(=O)O)C(=O)O)C(=O)O)cc2)c1 | nM | 230

IC50 value, target or system KASUMI-1, for Cc1ccc(F)c(NC(=O)Nc2ccc(-c3cccc4c3c(N)nn4C(=O)C[C@H](N)C(=O)N[C@@H](CCC(=O)O)C(=O)O)cc2)c1 : 51

IC50 value, target or system KASUMI-1, for Cc1ccc(F)c(NC(=O)Nc2ccc(-c3cccc4c3c(N)nn4C(=O)C[C@H](N)C(=O)O)cc2)c1 : 42

IC50 value, target or system KASUMI-1, for Cc1ccc(F)c(NC(=O)Nc2ccc(-c3cccc4c3c(N)nn4C(=O)CCCCCNC(=O)C[C@H](N)C(=O)N[C@@H](CCC(=O)N[C@@H](CCC(=O)N[C@@H](CCC(=O)N[C@@H](CCC(=O)N[C@@H](CCC(=O)N[C@@H](CCC(=O)N[C@@H](CCC(=O)N[C@@H](CCC(=O)N[C@@H](CCC(=O)O)C(=O)O)C(=O)O)C(=O)O)C(=O)O)C(=O)O)C(=O)O)C(=O)O)C(=O)O)C(=O)O)cc2)c1 : 4940

IC50 value, target or system KASUMI-1, for Cc1ccc(F)c(NC(=O)Nc2ccc(-c3cccc4c3c(N)nn4C(=O)C[C@H](N)C(=O)N[C@@H](CCC(=O)N[C@@H](CCC(=O)N[C@@H](CCC(=O)N[C@@H](CCC(=O)O)C(=O)O)C(=O)O)C(=O)O)C(=O)O)cc2)c1 : 120

IC50 value, target or system KASUMI-1, for Cc1ccc(F)c(NC(=O)Nc2ccc(-c3cccc4[nH]nc(N)c34)cc2)c1 [Linifanib, reference compound] : 10

IC50 value, target or system KASUMI-1, for Cc1ccc(F)c(NC(=O)Nc2ccc(-c3cccc4c3c(N)nn4C(=O)C[C@H](N)C(=O)N[C@@H](CCC(=O)N[C@@H](CCC(=O)N[C@@H](CCC(=O)N[C@@H](CCC(=O)N[C@@H](CCC(=O)N[C@@H](CCC(=O)N[C@@H](CCC(=O)N[C@@H](CCC(=O)N[C@@H](CCC(=O)O)C(=O)O)C(=O)O)C(=O)O)C(=O)O)C(=O)O)C(=O)O)C(=O)O)C(=O)O)C(=O)O)cc2)c1 : 190

IC50 value, target or system KASUMI-1, for Cc1ccc(F)c(NC(=O)Nc2ccc(-c3cccc4c3c(N)nn4C(=O)CCCCCCCCCCCNC(=O)C[C@H](N)C(=O)N[C@@H](CCC(=O)O)C(=O)O)cc2)c1 : 96

###

- Tested on: SW620
- Test: Cell proliferation assay (Alamar Blue)
- Format: cell-based
- Applied Conditions: Homo sapiens, SW-620, 144 h; SW620 tumor cell line; 6 days
List of pIC50 values.
Value format note: pIC50 is -log10 of concentration (mol/L); just state the number.

Compound | Attribute Measured | Val
Cc1ccc(F)c(NC(=O)Nc2ccc(-c3cccc4[nH]nc(N)c34)cc2)c1 [Linifanib, reference compound] | pIC50 | 5.56

Read the next record carefully.
// pIC50 lookup, compound = Cc1ccc(F)c(NC(=O)Nc2ccc(-c3cccc4c3c(N)nn4C(=O)C[C@H](N)C(=O)N[C@@H](CCC(=O)N[C@@H](CCC(=O)N[C@@H](CCC(=O)N[C@@H](CCC(=O)N[C@@H](CCC(=O)N[C@@H](CCC(=O)N[C@@H](CCC(=O)N[C@@H](CCC(=O)N[C@@H](CCC(=O)O)C(=O)O)C(=O)O)C(=O)O)C(=O)O)C(=O)O)C(=O)O)C(=O)O)C(=O)O)C(=O)O)cc2)c1 , result: 4.98

###

- Test system: 26 liver cancer cell lines
- Test: Cell proliferation assay (Alamar Blue), summary over liver cancer lines
- Assay type: cell-based
- Applied Conditions: nearly half of the liver cancer cell lines (12/26, 46%), moderately sensitive
Attribute Measured: IC50

// IC50 lookup, compound = Cc1ccc(F)c(NC(=O)Nc2ccc(-c3cccc4[nH]nc(N)c34)cc2)c1 [Linifanib, reference compound] , result: < 5 µM

###

- System: SNU387
- Test: Cell proliferation assay (Alamar Blue)
- Format: cell-based
- Applied Conditions: Homo sapiens, SNU-387, 144 h; SNU387 liver cancer cell line; 6 days
- Description: 1. Instruments and Materials • Thermo 311 CO2 incubator; Haier biosafety cabinet; Molecular Devices microplate reader; Xiangyi brand L530 desktop low speed centrifuge; Olympus IX51 inverted fluorescence microscope, DMEM, RPMI 1640, MEM, DMEM/F12 1:1 medium, Fetal bovine serum, 0.25% trypsin solution, phosphate buffer (Thermo Fisher Shanghai Co., Ltd.); sigma dimethyl sulfoxide (DMSO), resazurin; 54 commercial tumor cell lines (including 26 liver cancer cell lines). […]
List of IC50 values.
Give your result in µM as a bare value.

These recorded examples may help you get a feel for the data.
Smiles Representation | Unit Tag | IC50
Cc1ccc(F)c(NC(=O)Nc2ccc(-c3cccc4c3c(N)nn4C(=O)C[C@H](N)C(=O)N[C@@H](CCC(=O)N[C@@H](CCC(=O)N[C@@H](CCC(=O)N[C@@H](CCC(=O)N[C@@H](CCC(=O)N[C@@H](CCC(=O)N[C@@H](CCC(=O)N[C@@H](CCC(=O)N[C@@H](CCC(=O)O)C(=O)O)C(=O)O)C(=O)O)C(=O)O)C(=O)O)C(=O)O)C(=O)O)C(=O)O)C(=O)O)cc2)c1 | µM | 40.1
Cc1ccc(F)c(NC(=O)Nc2ccc(-c3cccc4c3c(N)nn4C(=O)CCCCCCCCCCCNC(=O)C[C@H](N)C(=O)N[C@@H](CCC(=O)N[C@@H](CCC(=O)N[C@@H](CCC(=O)N[C@@H](CCC(=O)O)C(=O)O)C(=O)O)C(=O)O)C(=O)O)cc2)c1 | µM | 90.2

Read the next record carefully.
// IC50 lookup, molecule = Cc1ccc(F)c(NC(=O)Nc2ccc(-c3cccc4c3c(N)nn4C(=O)C[C@H](N)C(=O)N[C@@H](CCC(=O)O)C(=O)O)cc2)c1 , result: 12.8
